Answer each item with its documented E^11.
- Test description: UV absorption properties (λmax and specific absorbance E 1/1) of the light protection agents
- Format: physicochemical
- Parameters: unit not given here
- Protocol conditions: Table 3, specific absorbance at λmax
Give the figure by itself; no unit, no explanation.

q: Let me know recorded E^11 for CN1/C(=C(\C#N)C(=O)OCCS(=O)(=O)O)Sc2ccccc21 , thanks.
a: 1160

q: Fill in reported E^11 for this entry: CCCCCCN1C(=C(C#N)C(=O)OC)N(CCCCCC)c2ccccc21
a: 970

q: Provide E^11 value for the following compound: COC(=O)/C(C#N)=C1\Nc2ccc(C(=O)c3ccccc3)cc2N1
a: 740

q: Tell me its E^11 given COC(=O)/C(C#N)=C1\Sc2ccccc2N1CCCS(=O)(=O)O as the entry.
a: 1200

q: Please look at this compound and report its E^11: COC(=O)C(C#N)=c1[nH]c2cccc3cccc([nH]1)c32
a: 1503

Taken from patent US6603014B1.
